- System tested: Pro-neuregulin-1, membrane-bound isoform (Homo sapiens) (UniProt Q02297)
- Sequence (Q02297 whole entry, looked up, canonical isoform): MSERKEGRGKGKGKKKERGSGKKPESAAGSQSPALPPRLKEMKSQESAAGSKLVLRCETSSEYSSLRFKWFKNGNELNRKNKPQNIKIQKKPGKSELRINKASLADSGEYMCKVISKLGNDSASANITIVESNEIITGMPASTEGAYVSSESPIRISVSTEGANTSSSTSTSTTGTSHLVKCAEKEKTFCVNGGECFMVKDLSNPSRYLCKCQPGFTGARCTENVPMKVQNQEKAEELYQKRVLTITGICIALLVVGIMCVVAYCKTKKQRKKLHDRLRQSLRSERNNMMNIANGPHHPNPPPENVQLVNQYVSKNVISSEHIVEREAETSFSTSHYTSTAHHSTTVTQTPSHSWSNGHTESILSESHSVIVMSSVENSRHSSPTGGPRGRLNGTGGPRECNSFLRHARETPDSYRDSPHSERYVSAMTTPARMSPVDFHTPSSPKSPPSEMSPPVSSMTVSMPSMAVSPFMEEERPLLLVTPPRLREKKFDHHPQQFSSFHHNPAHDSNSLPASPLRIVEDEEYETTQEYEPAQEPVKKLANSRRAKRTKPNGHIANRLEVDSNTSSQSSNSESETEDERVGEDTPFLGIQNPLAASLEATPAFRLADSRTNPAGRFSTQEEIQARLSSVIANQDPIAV
- Assay explanation: NRG1 binders on small-molecule microarrays, primary screen, psychiatric disease protein project, biochemical, small-molecule microarray, fluorescence 635/667 (AID 1075);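 also: score combines 667 nm spot fluorescence with signal to noise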
- Details: NRG1 binding, 635 nm fluorescence, higher = more signal
Label yes for high-side composite z-score (at or above 0.9) and no for low-side composite z-score (below it).

# bool: composite z-score of C=C[C@H](OC)[C@@H](OC(=O)Nc1ccc(OC)cc1)c1ccc(O)c(F)c1 >= 0.9
yes

# bool: composite z-score of CCCCCN1CC=CC23O[C@@H]4C=CCCOC(=O)C4[C@H]2C(=O)N(CCCCCO)[C@@H]3C1=O (stereo not given in full) >= 0.9
yes

# bool: composite z-score of COC(=O)C[C@H]1O[C@]2(C(=O)N(C)c3ccccc32)[C@@H](C)[C@@H]1[Si](C)(C)F >= 0.9
no

# bool: composite z-score of C=CC[C@@]12N=C(c3ccc(OCCCO)cc3)O[C@@H]1c1ccccc1N(C)C2=O >= 0.9
yes

# bool: composite z-score of C=C(CCCC)/C(=C/C[C@H](OC(C)=O)c1ccccc1OCCO)c1cc(C(=O)OC)ccc1OC >= 0.9
no

# bool: composite z-score of CC(C)NC(=O)[C@@]1(c2ccc([N+](=O)[O-])cc2)CC(=O)N(C2CCCCC2)[C@@H]1c1ccc(CO)cc1I >= 0.9
no

# bool: composite z-score of COCCOC(=O)N1C(=O)[C@@]2(c3cc(C#Cc4ccc(OC)cc4)ccc31)[C@H](c1ccc(O)cc1)N1[C@H](c3ccccc3)[C@H](c3ccccc3)OC(=O)[C@H]1[C@@H]2C(=O)N1CCc2cc(OC)c(OC)cc2C1 >= 0.9
no

----------
- Assay explanation: P. aeruginosa biofilm formation inhibitors, primary screen, strain PAO1, LB-PBS medium, absorbance 600 nm (AID 1176); also: test concentration not given here
- Details: P. aeruginosa PAO1 growth/biofilm, A600, 12 h; higher = more signal
Quantity name: z-score
Give bare numbers.

Compound	Result number
C=CCNC(=O)[C@@H]1[C@H]2C(=O)O[C@H](c3ccccc3)[C@H](c3ccccc3)N2[C@H](c2ccc(O)cc2)[C@@]12C(=O)Nc1ccc(C#CCNC(N)=O)cc12	0.0485
O=C(CS)NCCCCCCNC(=O)[C@@H]1C[C@@H]2C(=O)NCC(=O)N2[C@@H]1c1cccc(OCCO)c1	0.351
C=CCC(OC(C)=O)[C@@H]1[C@@H](N(Cc2cccc3ccccc23)C(=O)c2ccc(-c3ccccc3)cc2)c2cc(OCCCO)ccc2N1C(=O)c1ccc2ccccc2c1 (stereo partly drawn)	0.845

Each of the following entries comes with a recorded value; kindly state z-score for each.
1. CC1(C)[C@@H]2CC(C(O)C3C=CC4C(=O)N(c5ccccc5)C(=O)C4N3Nc3ccc([N+](=O)[O-])cc3)=C[C@H]1C2 (stereo partly drawn)
2. CCOC(=O)C[C@H]1[C@H](OC(=O)c2ccc(C(=O)c3ccccc3)cc2)[C@@H](NC(=O)c2ccccc2)c2cc(OCCCO)ccc2N1C(=O)c1ccc2ccccc2n1

[1.07, 0.207]

----------
- Assay explanation: small-molecule microarray binders of probe aDKK1, primary screen, biochemical, biotinylated probe, 635/667 nm fluorescence (AID 1099);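 also: score merges 667nm spot fluorescence with signal to noise across triplicate slides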
- Details: higher = more signal
Assign composite z-score to each entry below.
Numbers only.

Smiles	Result number
CCC[C@@H]1C[C@@]1(CCC)[C@@H](NS(=O)(=O)c1cccc2cccnc12)c1ccc(Cl)cc1	0.916
NC(=O)NCC#Cc1ccc2c(c1)[C@]1(C(=O)N2)[C@H](C(=O)Nc2nc3ccccc3s2)[C@H]2C(=O)O[C@H](c3ccccc3)[C@H](c3ccccc3)N2[C@@H]1c1ccccc1OCCO	1.83
COc1ccc([C@H]2OC[C@@H]3C[C@@H](Cc4ccccc4)C(=O)N32)cc1	-0.191
CO[C@H]1O[C@H](CO)[C@@H](OC(=O)Nc2cccc(F)c2)[C@H](OC(=O)Nc2ccccc2)[C@@H]1OC(=O)Nc1ccccc1	0.433

Each of the following entries comes with a recorded value; kindly state composite z-score for each.
1. CC(C)[Si]1(C(C)C)O[C@@H](c2ccccc2)c2cc(-c3ccc(-c4ccc(Cl)c(Cl)c4)o3)nc(-c3ccccc3)c21
2. C=C[C@H](CO)NS(=O)(=O)c1ccc(Br)cc1
3. CC(C)NC(=O)[C@@]1(C)c2ccccc2C(=O)N(Cc2cc(C(F)(F)F)cc(C(F)(F)F)c2)[C@H]1c1ccc(CO)cc1

0.0699
0.867
0.0251

----------
- Assay explanation: anti-His antibody binders, primary screen, artefact control for SMM control protein annotation, biochemical, small-molecule microarray, 635 nm fluorescence (AID 1128);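 also: score merges feature fluorescence with signal-to-noise for each printed compound spot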
- Details: anti-His Alexa647 antibody binding, higher = more signal
Assign composite z-score to each entry below.
One number for each entry.

Each of the following entries comes with a recorded value; kindly state composite z-score for each.
1. COc1cc2c(cc1OC)CN(C(=O)[C@H]1[C@@H]3C(=O)O[C@@H](c4ccccc4)[C@@H](c4ccccc4)N3[C@@H](c3ccc(O)cc3)[C@]13C(=O)Nc1ccc(C#CCCO)cc13)CC2
2. COC(=O)c1c(CC[C@@H](CO)NC(=O)NCCn2cc(C3(O)CCCC3)nn2)oc(C(C)=O)c1C(=O)OC
3. COC(=O)[C@@]1(Cc2ccc(F)cc2)[C@H]2c3cc(C(=O)N(C)C)n(Cc4ccccc4)c3C[C@H]2CN1C(=O)c1ccccc1

1: 1.31; 2: 0.828; 3: 1.38

----------
Assign composite z-score to each entry below.
- Assay explanation: small-molecule microarray binders of probe aDKK1, primary screen, biochemical, biotinylated probe, 635/667 nm fluorescence (AID 1099);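 also: score merges 667nm spot fluorescence with signal to noise across triplicate slides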
- Details: higher = more signal

Compound	composite z-score
O=C1O[C@@H](c2ccccc2)[C@@H](c2ccccc2)N2[C@@H](c3ccccc3OCCO)[C@]3(C(=O)Nc4ccccc43)[C@@H](C(=O)Nc3nc4ccccc4s3)[C@H]12	1.05
COC(=O)[C@@]1(Cc2ccccc2)[C@H]2c3cc(C(=O)N(C)C)n(Cc4ccsc4Br)c3C[C@H]2CN1C(=O)c1ccccc1	0.894
[N-]=[N+]=Nc1ccccc1[C@H]1OC(c2ccc(OCCCO)cc2)=N[C@@]1(CCS(=O)(=O)c1ccccc1)C(N)=O	1.01

Each of the following entries comes with a recorded value; kindly state composite z-score for each.
1. Cc1ccccc1C(O)C1C=CC2C(=O)N(c3ccccc3)C(=O)C2N1Nc1ccc(C(C)C)cc1 (configuration not stated)
2. COC(=O)[C@@]1(Cc2ccccc2)N=C(c2ccc(OCCCO)cc2)O[C@H]1c1ccccc1

0.456
0.206

Each of the following entries comes with a recorded value; kindly state composite z-score for each.
1. C=CC[C@@]12N=C(c3ccc(OCCCO)cc3)O[C@@H]1c1ccccc1N(C)C2=O
2. CCOC(=O)C[C@H]1[C@H](OC(=O)c2ccc(-c3ccccc3)cc2)[C@@H](NC(=O)Cc2ccc(OC)cc2)c2cc(OCCCO)ccc2N1C(=O)c1ccccc1

[0.178, 0.18]

----------
- System tested: Torsin-1A (Homo sapiens) (UniProt O14656)
- Sequence (O14656 whole entry, looked up): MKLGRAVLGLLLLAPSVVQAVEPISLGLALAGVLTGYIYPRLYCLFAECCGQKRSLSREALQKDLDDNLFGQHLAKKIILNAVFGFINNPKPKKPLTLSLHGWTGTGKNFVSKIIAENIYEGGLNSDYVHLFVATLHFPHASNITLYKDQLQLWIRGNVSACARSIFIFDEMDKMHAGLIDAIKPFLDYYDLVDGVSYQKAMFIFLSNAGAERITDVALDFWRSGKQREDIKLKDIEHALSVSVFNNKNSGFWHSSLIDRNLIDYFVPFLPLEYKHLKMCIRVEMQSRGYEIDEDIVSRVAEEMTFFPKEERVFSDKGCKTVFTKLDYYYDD
- Assay explanation: small-molecule binders of mutant TOR1A in lysate, primary screen, cell lysate, small-molecule microarray, COS7 lysate, 635/667 nm fluorescence (AID 1150);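 also: score pools 667 nm emission and signal to noise measuring lysate protein binding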
- Details: COS7 hTOR1A mutant lysate, 635 nm fluorescence, higher = more signal
Quantity name: composite z-score
Give bare numbers.

Molecule	composite z-score
O=C1O[C@@H](c2ccccc2)[C@@H](c2ccccc2)N2[C@@H](c3ccccc3OCCO)[C@]3(C(=O)Nc4ccc(C#CC5=CCCCC5)cc43)[C@@H](C(=O)N3CCCCCCC3)[C@H]12	2.9
COc1ccc(CCNC(=O)[C@@]2(C)c3ccccc3C(=O)N(C(C)C)[C@H]2c2ccc(CO)cc2)cc1	-0.176
[N-]=[N+]=NCc1ccccc1C[C@]1(C(=O)N2CCCCC2)N=C(c2ccc(OCCCO)cc2)O[C@H]1c1ccccc1N=[N+]=[N-]	1.03

Each of the following entries comes with a recorded value; kindly state composite z-score for each.
1. CCCCCN1CC=CC23O[C@@H]4C=CCCOC(=O)C4[C@H]2C(=O)N(CCCCCO)[C@@H]3C1=O (stereo partly drawn)
2. COc1cc2c(cc1O)C(C1CC1)N(Cc1sc3ccccc3c1Cl)CC2 (stereo not drawn)
3. COCCOC(=O)N1C(=O)[C@@]2(c3cc(C#CC4(O)CCCCCC4)ccc31)[C@H](c1ccccc1OCCO)N1[C@H](c3ccccc3)[C@H](c3ccccc3)OC(=O)[C@H]1[C@@H]2C(=O)N1CCN(c2ncccn2)CC1
4. CC(C)=CCN[C@H](CO)c1ccccc1
5. COC(=O)[C@@]1(CCS(=O)(=O)c2ccccc2)N=C(c2ccc(OCCCO)cc2)O[C@H]1c1ccccc1CN=[N+]=[N-]

1. 0.843
2. 0.982
3. 0.699
4. 0.324
5. 0.869

----------
Assign composite z-score to each entry below.
- System tested: Fibroblast growth factor 2 (Homo sapiens)
- Assay explanation: FGF2 binders on small-molecule microarrays, primary screen, biochemical, small-molecule microarray, 635/667 nm fluorescence (AID 1133)
- Details: small-molecule microarray binding, FGF2, fluorescence 635/667; higher = more signal

Compound	composite z-score
O=C1C[C@@](C(=O)NCCN2CCOCC2)(c2ccc([N+](=O)[O-])cc2)[C@@H](c2ccc(CO)cc2I)N1CC12CC3CC(CC(C3)C1)C2	1.22
COC(=O)[C@@]1(Cc2ccc(OC)cc2)[C@H]2c3cc(C(=O)N(C)C)n(CCc4ccccn4)c3C[C@H]2CN1C(=O)c1ccccc1	-0.162
C=CCNC(=O)[C@@H]1[C@H]2C(=O)O[C@H](c3ccccc3)[C@H](c3ccccc3)N2[C@H](c2ccc(OCCO)cc2)[C@@]12C(=O)Nc1ccc(C#CCC(C(=O)OC)C(=O)OC)cc12	0.582
CC(C)(C)OC(=O)CC[C@]1(C(=O)N2CCOCC2)N=C(c2ccc(OCCCO)cc2)O[C@H]1c1ccccc1N=[N+]=[N-]	0.449
O=C1C[C@@](C(=O)NCC(F)(F)F)(c2ccc([N+](=O)[O-])cc2)[C@@H](c2ccc(CO)cc2I)N1C1CCCCC1	1.26
CCc1cccc(NC(=O)O[C@H]2[C@H](OC(=O)Nc3ccccc3-c3ccccc3)[C@@H](OC(=O)Nc3ccccc3-c3ccccc3)[C@@H](OC)O[C@@H]2CO)c1	0.179
COc1cc2c(cc1O)C(C1CC1)N(Cc1sc3ccccc3c1Cl)CC2 (centres undefined)	0.124
CCOC(=O)C[C@H]1[C@H](OC(=O)c2ccc(C(=O)c3ccccc3)cc2)[C@@H](NC(=O)c2ccc3ccccc3n2)c2cc(OCCCO)ccc2N1C(=O)c1ccccc1	0.674
COC(=O)c1c(CC[C@@H](CO)NC(=O)NCCn2cc(C3(O)CCCC3)nn2)oc(C(C)=O)c1C(=O)OC	0.247
CC(C)OC(=O)C=C1C[C@@H](c2ccccn2)O[C@@H](c2ccccn2)O1	0.935

Each of the following entries comes with a recorded value; kindly state composite z-score for each.
1. CCS[C@H]1[C@@H](C(=O)O)[C@H](c2ccc(C)cc2)N(S(=O)(=O)c2ccc(C)cc2)[C@@H]1CC
2. [N-]=[N+]=NCc1ccccc1C[C@]1(C(N)=O)COC(c2ccc(OCCCO)cc2)=N1
3. CCOC(=O)C[C@H]1[C@H](OC(=O)c2ccc(-c3ccccc3)cc2)[C@@H](NC(=O)Cc2ccc(OC)cc2)c2cc(OCCCO)ccc2N1C(=O)c1ccccc1
4. COCCOC(=O)N1C(=O)[C@@]2(c3cc(C#Cc4ccc(OC)cc4)ccc31)[C@H](c1ccccc1OCCO)N1[C@H](c3ccccc3)[C@H](c3ccccc3)OC(=O)[C@H]1[C@@H]2C(=O)NC[C@H](O)c1ccccc1

1. -0.0028
2. 0.261
3. 0.0164
4. 1.6

Ref: PubChem BioAssay
